test system: ATP; experiment: switch fluorescence ratio, 500 uM ATP over buffer (Cy3 cluster intensity, sum of 5 cycles each) (fold (ratio)); higher = stronger signal-on switching upon ATP binding; sequences stand for … in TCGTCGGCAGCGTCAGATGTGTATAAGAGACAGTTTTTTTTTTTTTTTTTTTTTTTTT…TC; settings: aptamer strand: ATP DNA aptamer (quencher-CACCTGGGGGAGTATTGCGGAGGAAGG + anchor), 100 nM annealed; ATP concentration: 500 uM;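 further: ATP exposure 15 min at 22 °C before imaging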
measured_attribute: switch fluorescence ratio
Please state the value as a number alone, without comment.

The sequence listed as TGATGGGTC shows switch fluorescence ratio equal to 0.996

The sequence listed as TAAATCCTTT shows switch fluorescence ratio equal to 1

Looking up TTAAGGTTTA , I found its switch fluorescence ratio recorded as 1.02

Quick note, switch fluorescence ratio for GGTCATTTGT landed at 1

According to the records, this sequence TTCTCGGCCC displays switch fluorescence ratio of 1.11

According to the records, this sequence TAAGCCGCCT displays switch fluorescence ratio of 0.998

Reported switch fluorescence ratio ( GAACGGTATG ) = 1.02

Measured switch fluorescence ratio, AAATATTTCC : 1.09

TAGTCTTGGG has a reported switch fluorescence ratio of 1

// sample TGCTAATAGT , its switch fluorescence ratio was 1.03

get_value(item= AACTGGGGTT , readout=switch fluorescence ratio) returns 0.987

Entry CTCAAAAGTA ; switch fluorescence ratio = 1.09

For record TATTTTTTTT the listed switch fluorescence ratio is 1.01

So for TTGTGGCCGG , the logged switch fluorescence ratio turned out to be 0.978

# switch fluorescence ratio of GGGTGGATAG = 0.971

The recorded switch fluorescence ratio for CGTGGGCGCC is 0.972

get_value(item= AATGTGCCGT , readout=switch fluorescence ratio) returns 1.07

According to the records, this sequence TATATGATG displays switch fluorescence ratio of 1.02

// switch fluorescence ratio lookup, sequence = ATGATGAATA , result: 0.949

Sample TAGGAAAGAA ; switch fluorescence ratio observed: 1.03

# sequence TTTGTGATGT ; its switch fluorescence ratio = 1.02

switch fluorescence ratio reading for TATGTGGACA : 0.996

Notebook: TTTTAAAGA , switch fluorescence ratio read as 0.982

switch fluorescence ratio reading for GACTTCTTAG : 0.957

Entry CTGGTGGGGT ; switch fluorescence ratio = 1.02

Looking up TCTTGGCACA , I see its switch fluorescence ratio listed as 1.04

switch fluorescence ratio measured on AGCTTTGGGG = 1.02

switch fluorescence ratio reported for this sequence TTTTTTTGTA : 1.01

Record ATGAAAATAC , field switch fluorescence ratio: 1.01

According to the records, this sequence CAGGACCCGT displays switch fluorescence ratio of 0.997

Form: sequence = GCAAGCTGGG ; switch fluorescence ratio = 1.01

Reported switch fluorescence ratio of ATATGGATAC : 1.05
